Experiment: yeast display, Sf9 membrane polyspecificity reagent, FACS + sequencing; frameworks hold sequencing errors
Assay Readout: polyreactivity (PSR sort gate)

QVQLVESGGGLVQAGGSLRLSCAPYGFTFSKYAMGWYRKAPGKERELVAAITYSGGTTYYADSVKGRFTISRDNAKNTVYLQMNSLKPEDTAVYYCAADTKRRSIRYDYWGQGTQVTVSS
high polyreactivity
QVQLQGSGGGLVQAGGSLRLSCAASAYIFQNHPMGCNRQAPGKERELVAGIDNGTSTNYADSVNGRFTISRDNAKNTVYLQMNSLKPEDTAVYYCAAAGQADDTLGYWGQGTQVTVSS
low polyreactivity
QVQLVESGGGLVQAGGSLRLSCAASGSTFTVNGMGWYRQAPGKERELVASITWSGGSTYYADSVKGRFTISRDNAKISVYLHMTSLIPEDTAVYYCAADEKLYITGYDYWGQGTQVTVSS
low polyreactivity
QVQLVESGGGLVQAGGSLRFSCAASGSIFSSYDMGWYRQAPGKERELVAAITRGGTTNYADSVKGRFTISRDNAKNTVYLQMNSLKPEDTAVYYCNVAYGLLGISPGGDYWGQGTQVTVSS
low polyreactivity

Let us move to another entry and its polyreactivity (PSR sort gate).
Query string: I am curious: what polyreactivity (PSR sort gate) value has been reported for QVQLVESGGGLVQAGGSLRLSCAASGRIFSEYAMGWYRQAPGKERELVAAISKSGGRTYYADSVKGRFTISRDNAKNTVYLKMNSLKPEDTAVYYCNARAVYPAGYAYDYWGQGTQVTVSS ?
Result string: high polyreactivity

----------
Experiment: yeast display, Sf9 membrane polyspecificity reagent, FACS + sequencing; frameworks hold sequencing errors
Assay Readout: polyreactivity (PSR sort gate)

QVQLVESGGGLVQAGGSLRLSCAASGLTFAFYAMGWYRQAPGKEREFVAAITTGGSTYYADSVKGRFTISRDNAKNTVYLQMNSLKPEDTAVYYCAADLYRRRGQFDYWGQGTQVTVSS
high polyreactivity
QVQLVESGGGLVQAGGSLRLSCAATGFIFPINAMGWYRQAPGKERELVAAITGGGSTSYADSVKGRFTISRDNAKNTVYLQMNSLKPEDTAVYYCATDRLTYTKYGYWGQGTQVTVSS
low polyreactivity
QVQLEVSGGGLVQAGGSIRLSCAASGSTFGGNAMGWYRQAPRKERELVAAIDSGGSTYADSVKGRFTISRDNAKNTVYLQMNSLKPEDTAVYYCADWFSAYYSLYRHRGYWGQGTQVTVSS
low polyreactivity
QVQLVESGGGLVQAGGSLRLSCAASGSIFVYYAMGWYRQSPGKERELVAAINWSGGSTYYADSVKGRFTISRDNAKKTVYLQMNSLKPEDSAVYYCNAYLSPYDYDYWGQGTQVTLSS
low polyreactivity

Query string: I am curious: what polyreactivity (PSR sort gate) value has been reported for QVQLVESGGGLVQAGGSLRISCAASGLTILFYAMAWYRQAPGKERELVASIRWSDGRTYYADSVKGRFTISRDNAKNTVYLQMNSLKPEDTAVYYCAARSYLTPEYYYWGQGTQVTVSS ?
Result string: high polyreactivity

----------
Assay: yeast display, Sf9 membrane polyspecificity reagent, FACS + sequencing; frameworks hold sequencing errors
Assay Readout: polyreactivity (PSR sort gate)

QVQLVESGGGIVQAGGSLRLSCAASGNIFGQYAMGWYRQAPGKERELVAAITTTGSTYYADSVKGRFTISRDNAKNTVYLQMNSLKPEDTAVYYCAAVRYYPISYSEYWQYGYWGQGTQVTVSS
low polyreactivity
QVQLVESGGGLVQAGGRLRLSCAASGITFQPNAMGWYRQAPGKERELVARITRGGGRTYYADSVKGRFTISRDNAKNTVYLLMHSLKPEDTAVYYCAADYSYIYGFDYWGQGTQVTVSS
low polyreactivity
QVQLVESGGGLVQAGGSLRLSCAASGFTFPYYAKGWYRQAPGKERELVAASTYSGDSTDYADSVKGRFTISRDNAKNTVYLQMNSLKPEDTAVYYCNVTPDCAVTDDYWGQGTQVTVSS
low polyreactivity
QVQLVESGGGLVQAGGRLRLSCAASGRTFRGYAMGWYRQAPGKERELVAAITSGGSTNYADSVKGRFTISRDNAKYTVYLQMTSLKPEDTAVYYCAAEPYSWDTWVDYDYWGQGTQVTVSS
low polyreactivity

----------
Test: yeast display, Sf9 membrane polyspecificity reagent, FACS + sequencing; frameworks hold sequencing errors
Assay Readout: polyreactivity (PSR sort gate)

Study these solved cases before continuing.
QVQLVESGGGLVQAGGSLRLSCAASGFTFKYNAMGWYRQAPGKERELVAAITASGGSTRYADSVKARFTISRDNAKNTVYLQMNSLKPEDTAVNYCAARKWFPRYSASPRSHGPYDYWGLGTQVTVSS
high polyreactivity
QVQLVESGGGLVQAGGSLRLSCAASGSTPDGYGMGWYRQAPGKERELVAVITIGGGRTYYADSVKGRFTISRDNAKNTVYLQMNSLKAVDTAVYYCAAKGWRRYYIGDYWGQGTQVTVSS
high polyreactivity
QVQLVESGGGLVQAGGSLRLSCAASGRTFGTNAMGWYRQAPGKERELVASIDLSADSTYYADSVKGRFTISRDNAKNNFYLQMNSLKPEDTAVYYCNKDGYPWPPNLDYWGQGTQVTVSS
low polyreactivity
QVQLVESGGGLVQAGGSLRLSCAASGNTFTWYTMGWYRQAPGKERELVAGITWSGGSTFYADSVKGRFTISRDNAKNTVYLQMNSLKPEDTAVYYCAVSTEVNRYHAKYDYWGQGTQVTVSS
low polyreactivity
QVQLVESGGGLVQAGGSLRLSCAASGFIFPENDMGWYRQAPGKERELVATISGDTSTNYADSVKGRFTISRDNAKHTVYLQMNSLKPEDTAVYYCNRKLKGRKSHKLDYDYWGQGTQVTVSS
low polyreactivity
QVQLVESGGGLVHAGGSLRLSCASSGSALFWNAMGWYRQAPGKERELVATITNSGGSTYYADSVKGRFTISRDNAKNTVYLQMNSLKPEDTAVYYCNADESAYWKLRHGLGSDSWGQGTQVTVSS
low polyreactivity
QVQLVESGGGLVQAGGSLRLSCAASGSTFYKYAMGGYRQAPGKERELVAAISTRGGSTYYADSVKGRFTISRDNAKNTVYLQMNSLKPEDTAVYYCAADGSGGHDDYWGQGTQVTVSS
high polyreactivity
QVQLVESGGGLVQAGGSLRLSCDASGSTFYYYAMGWYRQAPGKERELVDSISFSGGSTYYADSVKGRFTISRDNAKNTVYLQMNSLKPEDTAVYYCGYYYWGQGTQVTVSS
low polyreactivity

Query string: I am curious: what polyreactivity (PSR sort gate) value has been reported for QVQLVESGGGLVQAGGSLRLSCAASGSTFIIYAMGWYRQEPGKEREFVATITGRGGRTYYAVSVKGRFTISRDNAKNTVYLQMNSLKPEDTAVYYCAKGLGSGQEIYGYDYGGQGTQVTVSS ?
Result string: high polyreactivity

Query string: I am curious: what polyreactivity (PSR sort gate) value has been reported for QVQLVESGGGLVQAGGSLRLSCAASGLIFGGNAMGWYRQAPGKERELVAAISRTGGRTYYADSVKGRFTISRDNAKNTVFLQMNSLKPEDTAVYYCNAATSYYTYTYGYWGQGTQVTVSS ?
Result string: high polyreactivity

Query string: I am curious: what polyreactivity (PSR sort gate) value has been reported for QVQLVESGGGLVQAGGSLRLSCAASGSTFLLYDMGWYRQAPGKERELVAAITWSGGSTYYADSVKGRFTISRDNAKNTVYLQMNSLKPEDTEVYYCAADSLGDRYYYWGQGTQVTVSS ?
Result string: low polyreactivity

----------
Assay: yeast display, Sf9 membrane polyspecificity reagent, FACS + sequencing; frameworks hold sequencing errors
Assay Readout: polyreactivity (PSR sort gate)

Study these solved cases before continuing.
QVQLVESGGGLVQAGGSLRLSCAASGIIIRGYAMGLYRQAPGKERELVAGITSGGRTYYADSVKGRFTISRDNAKNTVYLQMNSLKPEDTAVYYCNADAYGDDWKIYDYWGQVTQVTVSS
low polyreactivity
QVQLVESGGGLVQAGGSLRLSCAASGIIFRYYDMGWYRQAPGKERELVARITSRGGTYYADSVKGRFTISRDNATNTVYLKMNSLKPEDTAVYYCAASYLLTHGYAYNYWGQGTQVTVSS
high polyreactivity
QVQLVESGGGLVQAGGSLRLSCAASGFTFFYYAMGWYRKAPGKERELVARISSSGGRTYYSDSVKGRFTISRDNAKNTVYLQMNSLKPEDTAVYYCNARYYYYYTRYDYWGQGTQVTVSS
high polyreactivity
QVQLVESGGGLVQAGGSLRLSCAASGRIFYSYAMGWYRQAPGKERELVATISSAGSTYYADSVKGRFTISRDNAKNTVYLQMNSLKPEDTAVYYCAARRPRRYGFWGQGTQVTVSS
high polyreactivity
QVQLVESGGGLVQAGGSLRLSCAASGIIFQQYAMGWYRQAPGKERELVAAITYSGDGTYYADSVKGRFTISRDNANNTVYLQMNSLKPEDTAVYYCAAYPRDPYKEYDYWGQGTQVTVSS
low polyreactivity

Query string: I am curious: what polyreactivity (PSR sort gate) value has been reported for QVQLVESGGGVVQAGGTLRLSCAASGRIFSYYDMGWYRQAPGKERELVAAITWGGGATYYADSVKGRFTISRDNAKNTVYLLMNSLKPEDTAVYYCAADWSPSIWEYDYWGQGTQVTVSS ?
Result string: low polyreactivity

Query string: I am curious: what polyreactivity (PSR sort gate) value has been reported for QVQLVESGGGLVQAGGSLRLSCAASGRIFSAYAMGWYRPAPGKERELVAAISKRGGRTYYADSVKGRFTISRDNAKNTVYLQMNSLKPEDTAVYYCNKRYHDGHELDYWGQGTQVTVSS ?
Result string: high polyreactivity

Query string: I am curious: what polyreactivity (PSR sort gate) value has been reported for QVQLVESGGRLFQAGGSLRLSCAASGFTTSAYTKGWYRQAPGKERELVAVISARGGSTSYADSVKGRFTISRDNAKNPVYLQMKCRKPEDTAVFYCAARGRAHWHYDYWGHGTQVTVSS ?
Result string: high polyreactivity

Query string: I am curious: what polyreactivity (PSR sort gate) value has been reported for QVQLVESGGGLVQAGGSLRLSCAASGFIFLGYAMGWYRQAPGKEREFVAGITITGGSTYYADSVKGRFTISRDNAKNTVYLQMNSLKPEDTAVYYCNAESNLYRRRRNYWGQGTQVTVSS ?
Result string: low polyreactivity

Query string: I am curious: what polyreactivity (PSR sort gate) value has been reported for QVQLVESGGGLVQAGGSLRLSCAASGFTFEKYAMGRYIQAPGKERELDASISWSGGRTRYADSVKGRFTISRDNAKNTVYLQMNSLKPEDTAVYYCAARPLFGWRGYNYWGQGTQVTVSS ?
Result string: high polyreactivity

Query string: I am curious: what polyreactivity (PSR sort gate) value has been reported for QVQLVESGGGLVQAGGSLRLSCAASGRIFYGYAMGWYRQAPGKERELVAAITYIGGPYYADSVKGRFTISRDNAKNTVYFQMNSQKPEDTAVYYCATEPFYTYGYYTYPYWYDYWGQGTQVTVSS ?
Result string: low polyreactivity

All values here come from the nanobody polyreactivity screen of Harvey et al. (2022).
